Target: T1, huCD4-HIS (human, UniProt P01730 26-390, limits assumed)
T1 construct: the ELISA is not described in the text of this stretch; also called human CD4-HIS
Test: ELISA binning; competitor ibalizumab; 100 ng/mL huCD4-HIS, anti-HIS HRP; background 45, max binding 3000000
parameter: Ibalizumab ELISA binning signal
Numbers only.

>  <binder>
75110_14N19A (antibody, V domains shown, Tested as non-clonal AlivaMab Mouse Kappa hybridoma supernatant (detected with anti-mouse Fc gamma and anti-human kappa)) VH: QVQLQESGPGLVKPSETLSLTCTVSGGSISRYYWSWIRQPAGKGLEWIGRICTSENPNYNPALKSRVTMSVDTSKNQFSLKLSSVTAADTAVYYCARELERLNYYGMDVWGQGTTVTVSS VL: DIQMTQFPSSLSASVGDRVTITCQASQDISNYLNWYQQKPGKAPKLLIYDASNLESGVPSRFSGRGSGTDFTFTISSLQPEDFATFYCQQYDTLPITFGQGTRLEIK

>  <Ibalizumab ELISA binning signal>
1.28e+06

$$$$
>  <binder>
75110_06G04A (antibody, V domains shown, Tested as non-clonal AlivaMab Mouse Kappa hybridoma supernatant (detected with anti-mouse Fc gamma and anti-human kappa)) VH: QVQLLESGPGLVKPSETLSLTCTVSGGSISSYYWSWIRQPAGKGLEWIGRIYISGSTNYNPSLKSRVTMSIDTSENQFSLNLSSVTAADTAVYYCARELERPYYYGMDVWGQGTTVTVSS VL: DIQMTQSPSSLSASVGDRVTITCQASQDISNYLNWYQQKPGKAPKLLIYNASTLETGVPSRFSGSGSGTDFTFTISSLQPEDIATYYCQQYDNLPLTFGGGTKVEFK

>  <Ibalizumab ELISA binning signal>
1.96e+06

$$$$

// below: Ibalizumab ELISA binning signal requested for another binder
// query Ibalizumab ELISA binning signal value for entry 75110_08K12A (antibody, V domains shown, Tested as non-clonal AlivaMab Mouse Kappa hybridoma supernatant (detected with anti-mouse Fc gamma and anti-human kappa)) VH: EVQLVESGGGLVQPGGSLRLSCAASGFTFSSYDMHWVRQATGKGLEWVSTIGTAGDTYYPGSVKGRFTISRENAENSLYLQMNSLRAGDTALYYCARGDYYYYGMDVWGQGTTVTVSS VL: EIVLTQSPGTLSLSPGERATLSCRASQSVSSTYLAWYQQKPGQAPRLLIYGASNRATGIPDRFSGSGSGTDFTLTISRLEPEDFAVYYCQQFGTSPFTFGPGTKVDIK
1.98e+06
